- Method Summary: Determination of kinetic solubility (pH 7.4)
- Type: physicochemical
- Experimental Context: phosphate buffer, pH 7.4, aqueous buffer, kinetic from dmso stock, 50 mM phosphate buffer pH 7.4, read-out: Ksol, pH 7.4
Collected solubility kinetic at 2 h values appear next to each entry.
# number only, unit µg/mL dropped from output

[
  {
    "Compound": "CC(C)(C)c1noc(/C=C/C(=O)N2CCN(c3nc(OC[C@@]45CCCN4C[C@H](F)C5)nc4c(F)c(-c5cccc6cccc(Cl)c56)ncc34)C[C@@H]2CC#N)n1 [Compound 34]",
    "Unit Info": "µg/mL",
    "Meas Value": 0.01
  }
]

Ask: Read the entry N#CC[C@H]1CN(c2nc(OCC34CCCN3CCC4)nc3c2CCN(c2cccc4cccc(Cl)c24)C3)CCN1C(=O)/C=C/CN1CCSCC1 [Compound 171] and write its reported solubility kinetic at 2 h.
Reply: 108

Ask: Supply solubility kinetic at 2 h value. Item: N#CC[C@H]1CN(c2nc(OC[C@@]34CCCN3C[C@H](F)C4)nc3c(F)c(-c4cccc5ccc(F)c(F)c45)ncc23)CCN1C(=O)/C=C/CN1CC[C@@H]2COC[C@H]21 [Compound 299]
Reply: 118

Ask: Give solubility kinetic at 2 h for N#CC[C@H]1CN(c2nc(OC[C@@]34CCCN3C[C@H](F)C4)nc3c(F)c(-c4cccc5ccc(F)c(Cl)c45)ncc23)CCN1C(=O)/C=C/CN1CC2CC(C1)O2 [Example 77]
Reply: 116

Ask: Report solubility kinetic at 2 h, nothing else, for this compound: N#CC[C@H]1CN(c2nc(OC[C@@]34CCCN3C[C@H](F)C4)nc3c(F)c(-c4cccc5ccc(F)c(Cl)c45)ncc23)CCN1C(=O)/C=C/CN1[C@@H]2CC[C@H]1COC2 [Example 79]
Reply: 155

----------
This section presents molecules with their documented IC50 values.
- Tested Target: KRAS G12C (GMPPNP-loaded) and cRAF (Ras-binding domain) interaction (Homo sapiens (Human), UniProt P01116, C118S/C51S/C80L/G12C)
- Sequence (P01116 other isoform, or with tags, fused parts or gaps G12C/C51S/C80L/C118S): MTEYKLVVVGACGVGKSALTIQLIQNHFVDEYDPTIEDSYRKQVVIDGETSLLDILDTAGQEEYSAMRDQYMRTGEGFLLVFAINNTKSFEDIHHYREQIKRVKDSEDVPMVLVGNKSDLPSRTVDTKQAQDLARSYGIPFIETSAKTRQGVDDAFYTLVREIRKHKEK
- Method Summary: Inhibition of KRAS G12C and cRAF binding (AlphaScreen)
- Experimental Context: KRAS G12C loaded with GMPPNP, cRaf RBD, 2 hours preincubation; read-out: Raf-1 RBD K-Ras IC50

[
  {
    "Molecule": "Cc1nccc(/C=C/C(=O)N2CCN(c3nc(OCC45CCCN4CCC5)nc4c(F)c(-c5cccc6ccc(F)c(Cl)c56)ncc34)C[C@@H]2CC#N)n1 [Compound 155]",
    "Quantity Name": "IC50",
    "Meas Value": "< 10 nM"
  }
]

Ask: Give a short answer stating reported IC50 for N#CC[C@H]1CN(c2nc(OCC34CCCN3CCC4)nc3c2CCN(c2cccc4cccc(Cl)c24)C3)CCN1C(=O)/C=C/CN1C[C@H]2C[C@@H]1CO2 [Compound 63] .
Reply: < 10 nM

Ask: Identify the reported IC50 for the following entry. Cc1nsc(/C=C/C(=O)N2CCN(c3nc(OCC45CCCN4CCC5)nc4c3CCN(c3cccc5cccc(Cl)c35)C4)C[C@@H]2CC#N)n1 [Example 9]
Reply: < 10 nM

Ask: Find the measured IC50 of N#CC[C@H]1CN(c2nc(OCC34CCCN3CCC4)nc3c2CCN(c2cccc4cccc(Cl)c24)C3)CCN1C(=O)/C=C/CN1CCCCC1 [Compound 170] and report it.
Reply: < 10 nM

Ask: Give a short answer stating reported IC50 for CC(C)c1noc(/C=C/C(=O)N2CCN(c3nc(OC[C@@]45CCCN4C[C@H](F)C5)nc4c(F)c(-c5ccccc5C(F)F)ncc34)C[C@@H]2CC#N)n1 [Compound 152] .
Reply: > 500 nM

Ask: // fetch IC50 given entry N#CC[C@H]1CN(c2nc(OC[C@@]34CCCN3C[C@H](F)C4)nc3c(F)c(-c4cccc5ccc(F)c(Cl)c45)ncc23)CCN1C(=O)/C=C/CN1C2COCC1C2 [Example 76]
Reply: < 10 nM
